For each of the sequences below, state its log2 fold change of degron read counts.
- subject of test: T1, CRBN, Q96SW2
- T1 chain: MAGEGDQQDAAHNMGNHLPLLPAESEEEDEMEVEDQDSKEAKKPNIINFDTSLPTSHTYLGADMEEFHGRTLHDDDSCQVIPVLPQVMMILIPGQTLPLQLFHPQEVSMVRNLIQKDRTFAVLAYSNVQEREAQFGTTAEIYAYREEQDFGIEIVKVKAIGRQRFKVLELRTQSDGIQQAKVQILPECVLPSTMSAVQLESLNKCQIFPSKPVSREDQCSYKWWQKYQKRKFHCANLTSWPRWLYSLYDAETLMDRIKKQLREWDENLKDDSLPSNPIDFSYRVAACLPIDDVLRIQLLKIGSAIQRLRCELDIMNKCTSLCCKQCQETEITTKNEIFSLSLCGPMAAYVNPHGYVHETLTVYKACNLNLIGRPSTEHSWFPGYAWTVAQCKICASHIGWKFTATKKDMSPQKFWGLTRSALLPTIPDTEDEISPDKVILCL
- assay comment: log2 fold change of degron read counts, EGFP-low vs EGFP+ sorted cells (limma voom), compound-induced degradation; higher = more compound-induced degradation of the degron-EGFP fusion; degrons are variants of IKZF1/3 zinc finger 2; compound dose not given here;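 further: pooled lentiviral library of zinc finger degron-EGFP fusions in mCherry-positive Jurkat cells, FACS-sorted after compound exposure, with degron abundance counted by next-generation sequencing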
- test settings: Jurkat; 18 h; compound: compound 19 (5-tert-butyl-thalidomide)
The full ranking holds about 8,300 sequences; the median of “log2 fold change of degron read counts, EGFP-low vs EGFP+ sorted cells (limma voom), compound-induced degradation” is about -1.1, and the highest 2% start at about 3.2. The entries come from a sample that favours the highest values as a whole.
// response body must contain only the number

Qu. Please report log2 fold change of degron read counts for the following sequence: FGCDVCGAEFTQKGNLLRHIKL [46F_47G_49D_50V_52G_53A_54E_55F_67L_, Q9UKT9]
Ans. -1.81

Qu. Tell me measured log2 fold change of degron read counts for FICEVCGAIFTQKGNLLRHIKL [46F_47I_49E_50V_52G_53A_54I_55F_67L_, Q9UKT9] please.
Ans. -1.14

Qu. State its log2 fold change of degron read counts for this sequence: FVCEVCGAIFTQKGNLLRHIKL [46F_47V_49E_50V_52G_53A_54I_55F_67L_, Q9UKT9]
Ans. -1.03

Qu. Find the measured log2 fold change of degron read counts of FKCPICGHGFTQKGNLLRHIKL [46F_47K_49P_50I_52G_53H_54G_55F_67L_, Q9UKT9] and report it.
Ans. -2.34

Qu. In one line, give reported log2 fold change of degron read counts of the entry FQCEVCGAIFTQKGNLLRHIKL [46F_47Q_49E_50V_52G_53A_54I_55F_67L_, Q9UKT9] .
Ans. -1.13

Qu. Tell me its log2 fold change of degron read counts given FTCDQCGASFTQKGNLLRHIKL [46F_47T_49D_50Q_52G_53A_54S_55F_67L_, Q9UKT9] as the entry.
Ans. -1.41

Qu. Look up and report measured log2 fold change of degron read counts for this entry: LYCNQCGFVCTQKGNLLRHIKL [46L_47Y_49N_50Q_52G_53F_54V_55C_67L_, Q9UKT9]
Ans. -0.977
